Where these numbers come from: ChEMBL document CHEMBL1201862

- Test system: SNB-75
- assay details: NCI tumour cell line growth inhibition, 48 h
Activity calls are given as the source filed them. Cut-off read from the data, not from the text of the source: active = GI50 up to about 1.1 µM and inactive = higher.
Choose the fitting class; nothing outside true = active, false = inactive is accepted.

// known answers, use as guide
{"molecule": "C/C=C/C=C/C1=NN(c2cccc(S(=O)(=O)O)c2)C2(C1)C(Cl)C(=O)N2c1nc2ccccc2s1 (stereo unspecified)", "discrete label": "false"}
{"molecule": "COC(=O)C12C(=O)CC3CCC1C32C(=O)OC (stereo unspecified)", "discrete label": "false"}
{"molecule": "CCc1cccc(CC)c1NC(=S)NC(=O)c1ccc(Br)cc1", "discrete label": "false"}
{"molecule": "CCOC(=O)/C=C1\\CCCC12OCCO2", "discrete label": "false"}
{"molecule": "N#CC(/C(CCCC(=O)Nc1cccc([N+](=O)[O-])c1)=N\\NC(=O)c1c(O)ccc2ccccc12)c1nc2ccccc2s1 (stereo unspecified)", "discrete label": "false"}
{"molecule": "CCC1(CC)SCc2nc3ccccc3n21", "discrete label": "false"}

In the following, a different molecule is considered.
Problem: Recorded call for "C=CC(C)(C)n1cc(C2=C(O)C(=O)C(c3c(CC=C(C)C)[nH]c4ccccc34)=C(O)C2=O)c2ccccc21" ?
Solution: true

====

- System: CCRF-CEM
- assay details: NCI tumour cell line growth inhibition, 48 h
Activity calls are given as the source filed them. No stated cut-off is given here; in the data, active = GI50 up to about 1.1 µM and inactive = higher.
recorded endpoint: GI50

The cases that follow already have their GI50 on record.
{"compound": "CC(=O)OCCOCNC(=S)N/N=C/c1cc(Br)cs1", "GI50": "> 100 µM (inactive)"}
{"compound": "CSC(CC(=O)O)C(=O)O (configuration not stated)", "GI50": "> 100 µM (inactive)"}
{"compound": "N#CC(/C(CCCC(=O)Nc1cccc([N+](=O)[O-])c1)=N\\NC(=O)c1c(O)ccc2ccccc12)c1nc2ccccc2s1 (configuration not stated)", "GI50": "5.35 µM (inactive)"}
{"compound": "C=C(C)C1CCC2=CC(CC3(C)OC3C3=CC(C(=O)OC)=C(C1)O3)OC2=O (configuration not stated)", "GI50": "83.2 µM (inactive)"}

Problem: Item "C=CC(C)(C)n1cc(C2=C(O)C(=O)C(c3c(CC=C(C)C)[nH]c4ccccc34)=C(O)C2=O)c2ccccc21" has what recorded GI50?
Solution: 1.92 µM (inactive)

Problem: Item "O=C(CC(=O)N(C(=O)c1ccccc1)c1ccc(Cl)cc1)N/N=C\c1cc(/N=N/c2ccccc2Cl)ccc1O" has what recorded GI50?
Solution: 25.1 µM (inactive)

Problem: Item "CCN(CC)/C(Cl)=C(Cl)\C(=C1\Nc2ccc(OC)cc21)[N+](=O)[O-]" has what recorded GI50?
Solution: 20.1 µM (inactive)

====

- Test system: SK-OV-3
- assay details: NCI tumour cell line growth inhibition, 48 h
The source made the active and inactive calls. Rule as the data show it: active = GI50 up to about 1.1 µM and inactive = higher.
recorded endpoint: GI50

The cases that follow already have their GI50 on record.
{"given smiles": "COc1ccc2nc3cc(Cl)ccc3c(NCCCN3CCN(CCCNc4ccc5nnn6c7ccccc7c(=O)c4c56)CC3)c2c1", "tested system": "SK-OV-3", "GI50": "> 25 µM (inactive)"}
{"given smiles": "CC1(C)CCc2cc3c(-c4ccccc4)cc(=O)oc3cc2O1", "tested system": "SK-OV-3", "GI50": "> 100 µM (inactive)"}

Problem: Item "COC(=O)c1nsc(OC)c1Cl" has what recorded GI50?
Solution: > 100 µM (inactive)

Problem: Item "NC1=NNC2(C(N)=N1)c1ccccc1-c1ccccc12" has what recorded GI50?
Solution: > 10 µM (inactive)
